# assayed_system: recombinant human SYK (GST-hSYK fusion protein) (Homo sapiens)
# assay_remarks: biochemical
# reported_conditions: rhSYK Activity (IC50), recombinant human GST-SYK 5 pM, ATP 25 μM, biotinylated substrate peptide 250 nM, HTRF, 10-dose titration

{"compound": "Cc1cc(Nc2nccc(C(F)(F)F)n2)cc(-c2cnc(CCc3nnc(C)o3)s2)c1 [Example 79-8]", "IC50": "< 100 nM"}
{"compound": "Cc1cc(Nc2nccc(C(F)(F)F)n2)cc(-c2cnc(CNCCCO)s2)c1 [Example 88A-19]", "IC50": "< 100 nM"}
{"compound": "CCn1cc(NCc2ncc(-c3cc(C)cc(Nc4nccc(C(F)(F)F)n4)c3)s2)nn1 [Example 88A-26]", "IC50": "< 100 nM"}
{"compound": "CC1(C)C[C@@](O)(c2ncc(-c3cc(CN)cc(Nc4nccc(C(F)(F)F)n4)c3)s2)CC[C@@H]1C(=O)O [Example 123]", "IC50": "< 100 nM"}
{"compound": "Cc1cc(Nc2nccc(C(F)(F)F)n2)cc(-c2cnc(CNCCC(N)=O)s2)c1 [Example 88A-23]", "IC50": "< 100 nM"}
{"compound": "Cc1cc(Nc2nccc(OC(C)(C)C(=O)OC(C)(C)C)n2)cc(-c2cnc(C3(O)CCC3)s2)c1 [Example 94A-25]", "IC50": "100 to 1000 nM"}
{"compound": "Cc1cc(Nc2nccc(C(F)(F)F)n2)cc(-c2cnc(CN3CCC[S+]([O-])CC3)s2)c1 (centres unmarked) [Example 88B-4]", "IC50": "< 100 nM"}
{"compound": "CC(=O)Nc1cc(Nc2nccc(OC3CCN(C(=O)OC(C)(C)C)CC3)n2)cc(-c2cnc(C3(O)CCC3)s2)c1 [109(1)]", "IC50": "100 to 1000 nM"}
{"compound": "Cc1cc(Nc2nccc(C(F)(F)F)n2)cc(-c2cnc(C(=O)N3CC[C@H](CO)C3)s2)c1 [Example 87B-16]", "IC50": "< 100 nM"}
{"compound": "Cc1cc(Nc2nccc(C(F)(F)F)n2)cc(-c2cnc(C(C)NC3CNC(=O)C3)s2)c1 (centres unmarked) [Example 88A-39]", "IC50": "< 100 nM"}
{"compound": "Cc1cc(Nc2nccc(OC3CCC3)n2)cc(-c2cnc(C3(O)CCC3)s2)c1 [Example 94A-30]", "IC50": "< 100 nM"}
{"compound": "Cc1cc(Nc2ncc(F)c(OC3CCOC3)n2)cc(-c2cnc(C3(O)CCC3)s2)c1 (centres unmarked) [Example 94A-6]", "IC50": "100 to 1000 nM"}
{"compound": "Cc1cc(Nc2nccc(C(F)(F)F)n2)cc(-c2cnc(C3(C#N)CCCCC3)s2)c1 [Example 128]", "IC50": "100 to 1000 nM"}
{"compound": "Cc1cc(Nc2nccc(C(F)(F)F)n2)cc(-c2cnc(C3(F)CCS(=O)(=O)CC3)s2)c1 [Example 134]", "IC50": "< 100 nM"}
{"compound": "Cc1cc(Nc2nccc(C(F)(F)F)n2)cc(-c2cnc(CN3CCC(P(=O)(O)O)C3)s2)c1 (centres unmarked) [Example 88B-15]", "IC50": "< 100 nM"}
{"compound": "Cc1cc(Nc2nccc(C(F)(F)F)n2)cc(-c2cnc(CN(CCO)CCO)s2)c1 [Example 88A-13]", "IC50": "< 100 nM"}
{"compound": "Cc1cc(Nc2nccc(C(F)(F)F)n2)cc(-c2cnc(C(=O)N3CCN(CC(F)(F)F)CC3)s2)c1 [Example 87B-15]", "IC50": "1000 to 10000 nM"}
{"compound": "Cc1cc(Nc2nccc(OC3CCOC3)n2)cc(-c2cnc(C3(O)CCC3)s2)c1 (centres unmarked) [Example 94A-29]", "IC50": "< 100 nM"}
{"compound": "Cc1cc(Nc2nccc(-c3cnn(CC(C)(C)O)c3)n2)cc(-c2cnc(C3(O)CCC3)s2)c1 [Example 157]", "IC50": "< 100 nM"}
{"compound": "Cc1cc(Nc2nccc(C(F)(F)F)n2)cc(-c2cnc(-c3cccnc3)s2)c1 [Example 114-3]", "IC50": "< 100 nM"}
{"compound": "Cc1cc(Nc2nccc(C(F)(F)F)n2)cc(-c2cnc(CNCC(C)(C)O)s2)c1 [Example 88A-33]", "IC50": "< 100 nM"}
{"compound": "Cc1cc(Nc2nccc(C(F)(F)F)n2)cc(-c2cnc(CNCC3CCC(=O)N3)s2)c1 (centres unmarked) [Example 88]", "IC50": "< 100 nM"}
{"compound": "Cc1cc(Nc2nccc(C(F)(F)F)n2)cc(-c2cnc(-c3ccco3)s2)c1 [Example 114-7]", "IC50": "< 100 nM"}

====

# assayed_system: recombinant human SYK (GST-hSYK fusion protein) (Homo sapiens, UniProt P43405)
# assay_remarks: biochemical
# reported_conditions: rhSYK Activity, Table 61B
recorded_metric: IC50

{"compound": "Cc1cc(Nc2nccc(C(F)(F)F)n2)cc(-c2cnc(C3(NS(=O)(=O)CF)CCC3)s2)c1 [Example 61B-3]", "value_observed": "< 100 nM"}
{"compound": "CS(=O)(=O)NC1(c2ncc(-c3cccc(Nc4nccc(C(F)(F)F)n4)c3)s2)COC1 [Example 61B-9]", "value_observed": "< 100 nM"}
{"compound": "Cc1cc(Nc2nccc(C(F)(F)F)n2)cc(-c2cnc(C3(N[S+]([O-])C(F)F)COC3)s2)c1 (stereo not drawn) [Example 61B-8]", "value_observed": "< 100 nM"}

====

# assayed_system: recombinant human SYK (GST-hSYK fusion protein) (Homo sapiens, UniProt P43405)
# assay_remarks: biochemical
# reported_conditions: Syk IC50, HTRF, recombinant human GST-SYK
pIC50: −log10 of the molar value.
Listed here: items and their measured pIC50.

{"compound": "Cc1cc(Nc2nccc([C@@H](C)F)n2)cc(-c2cnc([C@@]3(O)CC[C@H](C(=O)O)C(C)(C)C3)s2)c1", "pIC50": "> 9.30"}
{"compound": "Cc1cc(Nc2nccc([C@H](C)F)n2)cc(-c2cnc([C@@]3(O)CC[C@H](C(=O)O)C(C)(C)C3)s2)c1", "pIC50": "> 9.30"}
{"compound": "Cc1cc(Nc2nccc(C(F)(F)F)n2)cc(-c2cnc(C(C)(O)c3ccc(C(=O)O)cc3)s2)c1 (stereo not drawn)", "pIC50": "> 9.30"}

====

# assayed_system: rhSYK (Homo sapiens, UniProt P43405)
# reported_conditions: read-out: rhSYK Activity; class symbol; where two forms are listed, one symbol per form
recorded_metric: IC50

{"molecule": "COC(=O)C1CCC(O)(c2ncc(-c3cc(C)cc(Nc4nccc(C(F)(F)F)n4)c3)s2)CC1C(C)C (stereo not drawn)", "value_observed": "100 to 1000 nM"}
{"molecule": "Cc1cc(Nc2nccc(C(F)(F)F)n2)cc(-c2cnc(C3(O)CC4C(Br)CC3C4C(=O)O)s2)c1 (stereo not drawn) [Example 4B-54]", "value_observed": "< 100 nM"}
{"molecule": "Cc1cc(Nc2nccc(C(F)(F)F)n2)cc(-c2cnc([C@]3(O)CC[C@@H](CO)CC3)s2)c1", "value_observed": "< 100 nM"}
{"molecule": "Cc1cc(Nc2nccc(C(F)(F)F)n2)cc(-c2cnc(C3(O)CCC(CN)CC3)s2)c1 (stereo not drawn)", "value_observed": "< 100 nM"}
{"molecule": "Cc1cc(Nc2nccc(C)n2)cc(-c2cnc(C3(O)C4CC5CC3CN(C5)C4)s2)c1 (stereo not drawn)", "value_observed": "100 to 1000 nM"}
{"molecule": "Cc1cc(Nc2nccc(C(F)(F)F)n2)cc(-c2cnc(C(=O)CCC(=O)CCO)s2)c1", "value_observed": "100 to 1000 nM"}
{"molecule": "Cc1cc(Nc2nccc(C(F)(F)F)n2)cc(-c2cnc(C(=O)CCC#N)s2)c1", "value_observed": "< 100 nM"}
{"molecule": "CC(C)C(O)(c1ncc(-c2cccc(Nc3nccc(C(F)(F)F)n3)c2)s1)C(C)C", "value_observed": "100 to 1000 nM"}
{"molecule": "CN(C)CC(C)(O)c1ncc(-c2cccc(Nc3nccc(C(F)(F)F)n3)c2)s1 (stereo not drawn)", "value_observed": "100 to 1000 nM"}

====

Measured IC50, listed per entry for reference.
# assayed_system: recombinant human SYK (GST-hSYK fusion protein) (Homo sapiens, UniProt P43405)
# assay_remarks: biochemical
# reported_conditions: rhSYK Activity, Table 116A

{"molecule": "COc1nc(Nc2cc(C)cc(-c3cnc(C4(O)CCC(C(=O)OC(C)(C)C)CC4)s3)c2)ncc1Cl (centres unmarked) [116A-14]", "IC50": "100 to 1000 nM"}
{"molecule": "Cc1cc(Nc2nccc(C(F)(F)C(F)(F)F)n2)cc(-c2cnc(C3(O)CCC(C(=O)O)CC3)s2)c1 (centres unmarked) [116A-13]", "IC50": "< 100 nM"}
{"molecule": "Cc1cc(Nc2ncc(Cl)c(C)n2)cc(-c2cnc([C@]3(O)CC[C@@H](C(=O)O)CC3)s2)c1 [116A-4]", "IC50": "< 100 nM"}
{"molecule": "COc1nc(Nc2cc(C)cc(-c3cnc([C@]4(O)CC[C@@H](C(=O)O)CC4)s3)c2)ncc1F [116A-5]", "IC50": "< 100 nM"}
{"molecule": "Cc1cc(Nc2nccc(-c3cccs3)n2)cc(-c2cnc(C3(O)CCC(C(=O)OC(C)(C)C)CC3)s2)c1 (centres unmarked) [116A-15]", "IC50": "100 to 1000 nM"}
{"molecule": "Cc1cc(Nc2nccc(C(C)(C)C)n2)cc(-c2cnc(C3(O)CCC(C(=O)O)C(C)(C)C3)s2)c1 (centres unmarked) [116A-32]", "IC50": "< 100 nM"}
{"molecule": "COc1nc(Nc2cc(C)cc(-c3cnc(C4(O)CCC(C(=O)OC(C)(C)C)CC4)s3)c2)ncc1F (centres unmarked) [116A-11]", "IC50": "100 to 1000 nM"}
{"molecule": "COC(=O)C1CCC(O)(c2ncc(-c3cc(C)cc(Nc4ncc(F)c(C)n4)c3)s2)CC1(C)C (centres unmarked) [116A-25]", "IC50": "< 100 nM"}
{"molecule": "COC(=O)C1CCC(O)(c2ncc(-c3cc(C)cc(Nc4ncc(F)cn4)c3)s2)CC1(C)C (centres unmarked) [116A-22]", "IC50": "100 to 1000 nM"}
{"molecule": "Cc1cc(Nc2nccc(C(C)(C)C)n2)cc(-c2cnc([C@]3(O)CC[C@@H](C(=O)O)CC3)s2)c1 [116A-6]", "IC50": "< 100 nM"}
{"molecule": "Cc1cc(Nc2nccc(C(C)F)n2)cc(-c2cnc(C3(O)CCC(C(=O)OC(C)(C)C)CC3)s2)c1 (centres unmarked) [116A-10]", "IC50": "< 100 nM"}
{"molecule": "Cc1cc(Nc2nccc(C(C)(C)C)n2)cc(-c2cnc(C3(O)CCC(C(=O)O)C(C)C3)s2)c1 (centres unmarked) [116A-20]", "IC50": "< 100 nM"}
{"molecule": "Cc1cc(Nc2nccc(C(=O)O)n2)cc(-c2cnc([C@@]3(O)CC[C@H](C(=O)O)C(C)(C)C3)s2)c1 [116A-24]", "IC50": "< 100 nM"}
{"molecule": "COC(=O)C1CCC(O)(c2ncc(-c3cc(C)cc(Nc4ncc(F)c(OC)n4)c3)s2)CC1(C)C (centres unmarked) [116A-35]", "IC50": "100 to 1000 nM"}
{"molecule": "Cc1cc(Nc2nccc(OC(C)C)n2)cc(-c2cnc([C@@]3(O)CC[C@H](C(=O)O)C(C)(C)C3)s2)c1 [116A-33]", "IC50": "< 100 nM"}
{"molecule": "Cc1cc(Nc2nccc(C(F)F)n2)cc(-c2cnc(C3(O)CCC(C(=O)O)C(C)C3)s2)c1 (centres unmarked) [116A-18]", "IC50": "< 100 nM"}
{"molecule": "COc1nc(Nc2cc(C)cc(-c3cnc(C4(O)CCC(C(=O)O)CC4)s3)c2)ncc1Cl (centres unmarked) [116A-8]", "IC50": "< 100 nM"}
